Record form. Attribute: pKi. Fill in for each entry.
# Target of assay: recombinant human JAK1 kinase domain protein (Residues 854-1154) (Homo sapiens, UniProt P23458)
# Construct: human JAK1 kinase domain protein (Residues 854-1154)
# Sequence (P23458 854-1154): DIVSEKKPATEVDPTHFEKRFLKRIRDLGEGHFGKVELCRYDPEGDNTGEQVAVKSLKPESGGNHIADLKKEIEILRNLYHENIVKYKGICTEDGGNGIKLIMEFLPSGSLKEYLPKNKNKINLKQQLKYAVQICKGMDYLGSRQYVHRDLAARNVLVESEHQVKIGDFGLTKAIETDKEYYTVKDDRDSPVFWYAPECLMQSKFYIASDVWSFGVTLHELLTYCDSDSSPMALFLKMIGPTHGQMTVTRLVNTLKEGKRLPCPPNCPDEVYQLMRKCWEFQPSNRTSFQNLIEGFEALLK
# Protocol description: JAK1 biochemical assay (LabChip mobility shift, Ki)
# Details: read-out: Biochem JAK1 Ki
Numbers only, as −log10 of the molar value.

For every record below, what is its pKi?
1. CN1CC[C@H](O)[C@@H](n2cc(Oc3ccc(OC(F)F)c(-c4nn(C)cc4NC(=O)c4cnn5cccnc45)c3)cn2)C1 (stereo in doubt)
2. CN(C)C(=O)CNCc1cccc(Oc2ccc(OC(F)F)c(-c3nn(C)cc3NC(=O)c3cnn4cccnc34)c2)c1
3. CN1CC(CC#N)(n2cc(Oc3ccc(OC(F)F)c(-c4nn(C)cc4NC(=O)c4cnn5cccnc45)c3)cn2)C1
4. CN1CC(O)(c2cc(F)cc(Oc3ccc(OC(F)F)c(-c4nn(C)cc4NC(=O)c4cnn5cccnc45)c3)c2)C1
5. Cn1cc(NC(=O)c2cnn3cccnc23)c(-c2cc(Oc3ccc(CN4CCC4CO)cc3)ccc2OC(F)F)n1 (racemic) [Example 168]
6. Cn1cc(NC(=O)c2cnn3cccnc23)c(-c2cc(Oc3cnn(CC4(O)CN5CCC4CC5)c3)ccc2OC(F)F)n1 (stereo not drawn) [Example 200]

a:
1. 9.49
2. 9.05
3. 8.82
4. 9.60
5. 8.89
6. 8.44

Data provenance is patent US12528812B2.
